I'd appreciate it if you could supply EC50 values for the items below.
Target: FSHR (Homo sapiens, UniProt P23945)
Construct: expressed in transfected cells; host or cells: CHO (Cho-FSHR-LUC-1-1-43)
Sequence (P23945 18-695): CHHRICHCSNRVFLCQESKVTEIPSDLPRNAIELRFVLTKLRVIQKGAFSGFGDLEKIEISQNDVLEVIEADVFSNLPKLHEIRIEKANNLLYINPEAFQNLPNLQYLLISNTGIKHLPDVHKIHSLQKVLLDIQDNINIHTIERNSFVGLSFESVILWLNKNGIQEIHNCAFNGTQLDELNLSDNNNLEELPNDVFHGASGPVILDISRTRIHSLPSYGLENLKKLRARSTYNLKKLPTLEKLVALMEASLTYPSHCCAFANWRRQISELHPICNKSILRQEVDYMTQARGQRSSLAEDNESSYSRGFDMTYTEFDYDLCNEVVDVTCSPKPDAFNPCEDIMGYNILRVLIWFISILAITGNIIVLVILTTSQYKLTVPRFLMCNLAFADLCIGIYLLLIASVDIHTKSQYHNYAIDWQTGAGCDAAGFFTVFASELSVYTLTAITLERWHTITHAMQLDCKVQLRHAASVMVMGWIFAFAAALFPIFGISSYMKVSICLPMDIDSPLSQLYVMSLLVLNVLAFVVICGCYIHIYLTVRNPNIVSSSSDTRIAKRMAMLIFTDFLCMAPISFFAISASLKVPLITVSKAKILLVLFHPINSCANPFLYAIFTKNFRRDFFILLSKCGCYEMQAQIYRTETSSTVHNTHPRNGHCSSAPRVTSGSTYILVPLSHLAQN
Experiment: EC50 of cyclic AMP production in CHO FSHR cells + EC20 FSH (Assay A)
Assay type: cell-based
Settings: CHO FSHR cells + EC20 FSH, cAMP HTRF; read-out: Assay A: EC50 of cyclic AMP production

Which EC50 value is on record for COc1cc2c(cc1CC(C)C)-c1c(c(C(=O)N3CCCN(C(=O)C4CCCO4)CC3)nn1-c1ccsc1)CO2 (stereo not shown) [Compound 21] ? 100 to 1000 nM

Which EC50 value is on record for COc1cc2c(cc1C=C(C)C)-c1c(c(C(=O)N(C)CCN3CCOC3=O)nn1-c1ccsc1)CO2 [Compound 23] ? < 100 nM

Which EC50 value is on record for COc1cc2c(cc1C=C(C)C)-c1c(c(C(=O)N(C)C(C)(C)CO)nn1-c1ccsc1)CO2 [Compound 40] ? < 100 nM

Which EC50 value is on record for COc1cc2c(cc1S(=O)(=O)C(C)C)-c1c(c(C(=O)N(C)C(C)(C)C)nn1-c1ccsc1)CO2 [Compound 79] ? < 100 nM

Which EC50 value is on record for COc1cc2c(cc1-c1ccn(C)c1)-c1c(c(C(=O)N(C)C3COC3)nn1-c1ccsc1)CO2 [Compound 103] ? 100 to 1000 nM

Which EC50 value is on record for COc1cc2c(cc1-c1cccnc1)-c1c(c(C(=O)N(C)C(C)(C)C)nn1-c1ccsc1)CO2 [Compound 2] ? < 100 nM

Which EC50 value is on record for COc1cc2c(cc1C1=CCOCC1)-c1c(c(C(=O)N3CCOCC3(C)C)nn1-c1ccsc1)CO2 [Compound 189] ? < 100 nM
